Numbers sourced from ChEMBL document CHEMBL5226352.

Please go through the items and note down their pIC50.
# SYSTEM: DNA oxidative demethylase ALKBH2 (Homo sapiens, UniProt Q6NS38)
# Sequence (Q6NS38 whole entry, the tested form may be a part): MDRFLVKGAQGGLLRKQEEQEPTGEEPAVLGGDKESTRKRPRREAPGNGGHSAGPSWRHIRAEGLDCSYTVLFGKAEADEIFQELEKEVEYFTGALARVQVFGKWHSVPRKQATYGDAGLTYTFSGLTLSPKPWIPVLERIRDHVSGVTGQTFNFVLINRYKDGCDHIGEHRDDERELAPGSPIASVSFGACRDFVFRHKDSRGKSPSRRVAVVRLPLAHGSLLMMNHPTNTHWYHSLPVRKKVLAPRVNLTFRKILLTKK
# METHOD SUMMARY: Inhibition of human ALKBH2 (56 to 258 residues) expressed in Escherichia coli BL21 (DE3) Rosetta cells
// field semantics: pIC50 = negative decimal log of concentration (mol/L)

// query Given the entry O=C(O)c1ccnc(C(=O)NS(=O)(=O)c2ccccc2)c1 , report its measured pIC50.
// result 4.19

// query What does the record list as pIC50 for Cc1ccccc1S(=O)(=O)NC(=O)c1cc(C(=O)O)ccn1 ?
// result 4.25

// query pIC50 for O=C(O)c1ccnc(C(=O)NS(=O)(=O)c2ccccc2C(F)(F)F)c1 ?
// result 4.34
